This section presents compounds with their documented TGI values.
System: SF-268 CNS
Test: NCI tumour cell line growth inhibition, 48 h

Below are worked cases with known answers.
> print(dat)
                                    compound  recordedvalue
 1  CC(C)(C)OC(=O)N[C@@H](Cc1ccccc1)C(=O)N(Cc1ccccc1)C1(C(=O)NCc2ccccc2)CCN(Cc2ccccc2)CC1       > 100 µM
 2                        NCCCCNCCCN1CCOC1=O       > 100 µM
 3  NC(=O)C1CCN(Cc2c(Cl)c(Cl)c(CN3CCC(C(N)=O)CC3)c(Cl)c2Cl)CC1       > 100 µM
 4  CCC(CO)Nc1nc2c(c(=O)n(C)c(=O)n2C)n1CCO (stereo unspecified)       > 100 µM
 5                        Cc1ncc(CI)c(CI)c1O        54.7 µM
 6  CSc1nc(=O)c2nc(-c3cccs3)c(-c3cccs3)nc2n1C       > 100 µM
 7  CCOC(=O)C(NC(=O)c1cccc(Cl)c1)(Nc1cccc(C)c1)C(F)(F)F (stereo unspecified)        58.9 µM
 8  COc1cc2c(c(OC)c1)[C@H](C)N(Cc1ccccc1)C(C)C2 (stereo partly specified)       > 100 µM
 9  O=C1NC2C(O)CCCCC2C12CCCCC2 (stereo unspecified)       > 100 µM
10  Cc1c(C(=O)NNc2ccccc2)n2c(=S)[nH]nc2c2ccccc12       > 100 µM

Given the entry CO[C@@]1(c2ccccc2)O[C@H]2OCCC2[C@H]1c1ccc(Cl)cc1 (stereo partly specified) , report its measured TGI.
> 100 µM

====

Item-by-item account of TGI
System: UACC-257 melanoma
Experiment: NCI tumour cell line growth inhibition, 48 h

Some solved cases for reference:
compound	recordedValue
C1=CCCC=CCC1.C[PH+](C)C.C[PH+](C)C.C[PH+](C)C.[Cl-].[Ir]	59.1 µM
Nc1c(N2CCOCC2)c(=O)nc2[nH]/c(=C\c3ccccc3O)c(=O)n12	> 100 µM
Cc1ccc(C)c(COCCOCn2cc(N3CCOCC3)c(=O)[nH]c2=O)c1	> 100 µM
O=C1NC2C(O)CCCCC2C12CCCCC2 (stereo not drawn)	> 100 µM
OC(CC(O)(C(F)(F)Cl)C(F)(F)Cl)c1ccccc1 (stereo not drawn)	> 10 µM
COc1c(N2CCN(CN3C(=O)C(=Nc4ccc(S(=O)(=O)Nc5ncccn5)cc4)c4cc(Cl)ccc43)C(C)C2)c(F)cc2c(=O)c(C(=O)O)cn(C3CC3)c12 (stereo not drawn)	17.7 µM

Which measured TGI value corresponds to CN1CCN(CCCOc2cc(O)c3c(=O)cc(-c4ccccc4)oc3c2)CC1 ?
41.1 µM

Reported TGI for COc1ccc(C2c3cc4c(cc3OC(Nc3ccccc3)C2C)OCO4)cc1 (stereo not drawn) : what is it?
> 100 µM

Which TGI reading was recorded for the compound CC(C)=CCc1c(O)cc2oc(-c3ccc(O)cc3O)cc(=O)c2c1O ?
> 83.8 µM

I have this compound here, c1ccc2c(c1)cc1ccc3cccc4ccc2c1c34 , and I need its recorded TGI.
> 100 µM

For CN(C)/N=N/c1nc2c(c(=O)n(C)c(=O)n2C)n1CC1CO1 (stereo not drawn) , what is its reported TGI?
43.9 µM

Request the reported TGI associated with c1cncc(CSc2nc3ccccc3nc2-c2cccs2)c1
> 100 µM

So what's the measured TGI for this one? COC(=O)[C@H](Cc1cn(C)cn1)NC(=O)[C@H](Cc1ccccc1)NC(=O)Nc1cc(C(F)(F)F)cc(C(F)(F)F)c1
30.1 µM

====

Tested on: T-47D breast
Assay: NCI tumour cell line growth inhibition, 48 h
Property: TGI; scope: individual compounds

Reference set (5 entries):
> print(dat)
                                   compound  measurename  recordedvalue
1  CC1SC(c2ccc(Cl)cc2Cl)N(NC(=O)C(O)c2ccccc2)C1=O (stereo unspecified)          TGI       > 100 µM
2  COc1cc2c(c(OC)c1)[C@H](C)N(Cc1ccccc1)C(C)C2 (stereo partly specified)          TGI       > 100 µM
3     CCOC(=O)N1CCN(c2c(N)nc(C)[nH]c2=O)CC1          TGI       > 100 µM
4  O=C([O-])CC(=O)[O-].[NH-][C@@H]1CCCC[C@H]1[NH-].[Pt+4]          TGI       > 100 µM
5  N#Cc1cccc(N2C(=O)C3C4C=CC(C3C2=O)C2C(=O)N(c3cccc(C#N)c3)C(=O)C42)c1 (stereo unspecified)          TGI      > 31.6 µM

I'm curious: which TGI was measured for OC(CC(O)(C(F)(F)Cl)C(F)(F)Cl)c1ccccc1 (stereo unspecified) tested on T-47D breast?
> 10 µM

====

Listed below: TGI values for each entry.
Test system: SK-OV-3 ovarian
Test: NCI tumour cell line growth inhibition, 48 h

Some compounds with known TGI results, for comparison:
compound	TGI
CC1(C)C=C(/C=C2/N(S(=O)(=O)C(F)(F)F)C(/C=C3/N(S(=O)(=O)C(F)(F)F)C(C)(C#N)CC3(C)C)=CC2(C)C)N=C1/C=C1/CC(C)(C)C(=O)N1 (stereo unspecified)	> 100 µM
CN(C)/N=N/c1nc2c(c(=O)n(C)c(=O)n2C)n1CC1CO1 (stereo unspecified)	61.7 µM
NC(Cc1ccccc1)c1nccs1 (stereo unspecified)	> 100 µM
C/C(=C\CSCC(N)C(=O)O)CC/C=C(\C)CNc1ccccc1 (stereo unspecified)	> 100 µM
CC1SC(c2ccc(Cl)cc2Cl)N(NC(=O)C(O)c2ccccc2)C1=O (stereo unspecified)	> 100 µM
CCOC(=O)c1c(-c2ccccc2)c(OC)cn1C	> 10 µM
CCN(CC)C(=S)N/N=C(/c1ccccc1)c1ccccn1	38.6 µM
O=C1C=CC(=O)c2c(O)c(N3CCC[C@@H]3CO)c(Cl)c(O)c21	7.78 µM
CC(SCc1ccccc1)C(=O)O (stereo unspecified)	> 100 µM
Cc1ncc(CI)c(CI)c1O	> 100 µM

Give its TGI value. Item: CN(C)CCCNc1nc2ccccc2c2[nH]c3ccccc3c12
6.11 µM

Param item = Cc1cc(-c2ccccc2)nc2oc(=O)n(C)c12 ; retrieve measured TGI.
> 100 µM

Find the recorded TGI belonging to COc1ccc(C2C=C(c3ccc(C)cc3)N(c3ccc(OC)cc3[N+](=O)[O-])C3C(=O)OC(=O)C23)c(OC)c1 (stereo unspecified) and report it.
> 100 µM

Requested field: TGI. Item: COc1ccc(-c2cc3cc(Cl)cc(Cl)c3oc2=O)cc1OC
> 100 µM

====

Tested on: HCC-2998 colon
Experiment: NCI tumour cell line growth inhibition, 48 h
TGI: recorded values

Could you share what TGI was measured for CCC[CH2][Sn]1([CH2]CCC)[S]CC[N]1S(=O)(=O)c1ccc(C)cc1 , tested on HCC-2998 colon?
3.44 µM

Give the reported TGI for CN(C)/N=N/c1nc2c(c(=O)n(C)c(=O)n2C)n1CC1CO1 (stereo not given) (system: HCC-2998 colon).
25.3 µM

Provide the documented TGI with HCC-2998 colon as the system for CC1=CCCC2C(C=O)(C1)CC(C)C2(CO)CC/C(=C/CO)CO (stereo not given)
> 100 µM

I'm curious: which TGI was measured for CC1=NOC(=O)/C1=C/c1ccc2c(c1)OCO2 tested on HCC-2998 colon?
95.5 µM

Report TGI for COc1cc(N=Nc2ccc(OC)c(S(=O)(=O)O)c2)c(C)cc1N=Nc1ccc(/C=C/c2ccc(N=[N+]([O-])c3ccc(/C=C/c4ccc(N=Nc5cc(C)c(N=Nc6ccc(OC)c(S(=O)(=O)O)c6)cc5OC)cc4S(=O)(=O)O)c(S(=O)(=O)O)c3)cc2S(=O)(=O)O)c(S(=O)(=O)O)c1 tested on HCC-2998 colon.
> 100 µM

====

System: HCC-2998 colon
Assay: NCI tumour cell line growth inhibition, 48 h
measureName: GI50

Look up GI50 with HCC-2998 colon for this compound: CCN(Cc1c(F)cccc1Cl)c1ccc(CO)c(Cl)c1
3.27 µM

Tell me reported GI50 for CN(C)CCCNc1nc2ccccc2c2[nH]c3ccccc3c12 , tested with HCC-2998 colon.
0.251 µM

// lookup GI50 | system=HCC-2998 colon | key= O=C1N=C(Nc2nc(-c3csc(NC4=NC(=O)/C(=C\c5ccccc5)S4)n3)cs2)S/C1=C/c1ccccc1
8.2 µM

Recorded GI50 for CCC[CH2][Sn]1([CH2]CCC)[S]CC[N]1S(=O)(=O)c1ccc(C)cc1 with HCC-2998 colon, please?
1.95 µM

What GI50 appears in the records for this compound with HCC-2998 colon? CC(=O)[O-].N.N.N.N.[Co+3].[O-][Cl+3]([O-])([O-])[O-].[OH3+]
> 100 µM

Provide the documented GI50 with HCC-2998 colon as the system for CC(=O)[CH-]C(=O)c1ccccc1.CC(=O)[CH-]C(=O)c1ccccc1.[O-]c1ccc2c(c1)OCO2.[O-]c1ccc2c(c1)OCO2.[Ti+4]
24.6 µM

GI50 of O=P(O)(O)OCC1OC(n2cnc3c(NCc4ccccc4)ncnc32)C(O)C1O (centres undefined) on HCC-2998 colon?
2.01 µM

Which measured GI50 belongs to CC1(C)CCC[C@]2(C)c3ccccc3C(=O)CC12 (some centres undefined) , tested on HCC-2998 colon?
20.8 µM

Reported GI50 for HCC-2998 colon, given Cc1ccc(C(=O)NC2CC2)cc1-c1ccc2[nH]ncc2c1 ?
> 25 µM
